meta.source: patent US20250034594A1

System: gene editing with dCas9
assaySummary: Screen of 322 new SSAP proteins, gene editing activity with dCas9 (Table 5)
Type: cell-based
conditions: normalized
reportedMetric: dCas9 with SSAP activity (normalized)
Write the number on its own, no unit after it.

Q) Fill in: dCas9 with SSAP activity (normalized) of SSAP_165: SEQ ID NO: 334; Robinsoniella sp. KNHs210 (protein, listed as Robinsoniella sp.) TTRTGNIKEELAKKAEGTNGDTRLTKAMSIADLIKAMEPEIKKALPEVITPERFTRMALSALNTTPKLRECTQISFLAAMMNAAQLGLEPNTPLGQAYLIPFNNKGTMECQFQIGYKGMIDLSYRNPQMQMISAQAVYENDEFKYELGLNPTLIHRPVLRGRGEVILFYGLFKLTNGGYGFEVMSKEEMDAYAKAYSKAIDSSFSPWKSNYNGMAKKTVIKQVLKYAPIKADFRKALSSDETIKNEISENMSEIHGEIIFDTDYMEESA is ___
A) −0.568
